Values were extracted from patent US12612380B2.

pIC50 by entry:
- Tested system: GBA2 (Homo sapiens)
- Sequence (Q9HCG7 1-927): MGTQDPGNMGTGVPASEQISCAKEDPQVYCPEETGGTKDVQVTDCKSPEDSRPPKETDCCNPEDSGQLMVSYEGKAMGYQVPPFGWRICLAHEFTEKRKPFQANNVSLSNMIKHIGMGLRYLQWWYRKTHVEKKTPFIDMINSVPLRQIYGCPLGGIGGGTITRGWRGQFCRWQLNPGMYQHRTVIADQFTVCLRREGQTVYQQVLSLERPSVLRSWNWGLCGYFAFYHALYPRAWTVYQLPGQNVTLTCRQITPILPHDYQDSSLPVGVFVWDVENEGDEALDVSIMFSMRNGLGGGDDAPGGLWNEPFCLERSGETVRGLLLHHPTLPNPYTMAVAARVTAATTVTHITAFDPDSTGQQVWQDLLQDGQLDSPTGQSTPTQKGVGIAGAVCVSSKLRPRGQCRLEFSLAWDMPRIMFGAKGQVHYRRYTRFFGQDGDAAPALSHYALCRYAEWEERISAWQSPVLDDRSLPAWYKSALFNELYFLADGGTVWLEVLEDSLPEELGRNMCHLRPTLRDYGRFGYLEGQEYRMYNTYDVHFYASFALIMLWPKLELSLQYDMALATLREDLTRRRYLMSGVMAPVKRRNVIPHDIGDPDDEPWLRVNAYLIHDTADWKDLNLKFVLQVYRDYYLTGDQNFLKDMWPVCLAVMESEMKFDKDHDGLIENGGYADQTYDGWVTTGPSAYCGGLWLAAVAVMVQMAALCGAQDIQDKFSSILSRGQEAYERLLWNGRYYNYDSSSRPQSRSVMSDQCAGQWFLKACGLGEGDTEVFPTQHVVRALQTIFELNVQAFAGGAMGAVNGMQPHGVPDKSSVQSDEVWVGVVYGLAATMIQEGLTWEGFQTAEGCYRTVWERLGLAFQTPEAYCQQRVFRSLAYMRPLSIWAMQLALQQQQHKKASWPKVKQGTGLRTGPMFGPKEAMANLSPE
- Assay text: Determination of IC50 values for inhibition of GBA2 in cell lysate
- Type: biochemical
- Set-up: host or cells: HEK293T (lentiviral transduction, puromycin selection); used as cellular homogenate
pIC50: −log10 of the molar value.
Property name: pIC50

# Sample smiles, Tested system, Property name, Recorded value
rows = [
    ("O[C@H]1[C@H](O)[C@H](CF)N(CCc2ccccc2F)C[C@@H]1O", "GBA2 (Homo sapiens)", "pIC50", "4.60 to 6.00"),
    ("C=C(C)c1cc(F)c(CCN2C[C@H](O)[C@@H](O)[C@H](O)[C@H]2C)c(F)c1", "GBA2 (Homo sapiens)", "pIC50", "> 7.00"),
    ("CC(C)c1cc(F)c(CCN2C[C@H](O)[C@@H](O)[C@H](O)[C@H]2CF)c(F)c1", "GBA2 (Homo sapiens)", "pIC50", "> 7.00"),
    ("O[C@H]1[C@H](O)[C@@H](O)CN(CCc2cc3c(cc2F)OCO3)[C@@H]1CF", "GBA2 (Homo sapiens)", "pIC50", "> 7.00"),
]
